Ref: ChEMBL document CHEMBL1201862

System: A498
Measurement notes: NCI tumour cell line growth inhibition, 48 h
The source made the active and inactive calls. Cut-off read from the data, not from the text of the source: active = GI50 up to about 1.1 µM and inactive = higher.
Observation type: GI50

Compound: O=C1NC(=O)C(C(=O)C(=O)Nc2ccc(Br)cc2)C(=O)N1
Observation type: GI50
Obs value: > 100 µM (inactive)
--
Compound: COC(=O)C(Cc1cc(OC)c(OC)c(OC)c1)c1ccc(OC)cc1 (stereo unspecified)
Observation type: GI50
Obs value: > 100 µM (inactive)
--
Compound: CC(C)=NNC(=S)NC12CC3CC(CC(C3)C1)C2
Observation type: GI50
Obs value: > 100 µM (inactive)
--
Compound: O=c1[nH]c(=O)n(C2OC(CO)C(O)C2O)c2ncc(-c3ccc(-c4ccccc4)cc3)nc12 (stereo unspecified)
Observation type: GI50
Obs value: > 20 µM (inactive)
--
Compound: CCN(CC)CC[n+]1ccc2c(C)c3[nH]c4ccccc4c3c(C)c2c1
Observation type: GI50
Obs value: 5.19 µM (inactive)
--
Compound: NS(=O)(=O)c1ccc(NC(=O)CC(=O)Nc2ccc(S(N)(=O)=O)cc2)cc1
Observation type: GI50
Obs value: > 100 µM (inactive)
--
Compound: COc1ccc(NC(=O)CC(=O)n2nc(C)c(/N=N/c3cccc(C)c3)c2C)cc1
Observation type: GI50
Obs value: 56.6 µM (inactive)
--
Compound: COc1ccc(CCNC(=O)[C@H]2CCCC[C@@H]2CCO)cc1OC
Observation type: GI50
Obs value: > 100 µM (inactive)
--
Compound: COC(=O)C1=C(C(=O)OC)C2(C)CCC(=O)C1O2 (stereo unspecified)
Observation type: GI50
Obs value: > 10 µM (inactive)
--
Compound: CC(C)(C)CC(C)(C)NC(=S)NO
Observation type: GI50
Obs value: > 100 µM (inactive)
--
Compound: CCOC(=O)Cc1nc2sc(S(N)(=O)=O)nn2c1Br
Observation type: GI50
Obs value: 26.5 µM (inactive)
--
Compound: Cc1ccc2ccc(O)cc2c1
Observation type: GI50
Obs value: 37.2 µM (inactive)
--
Compound: CC(C)(C)c1ccc(-n2c3nc(=O)n(-c4ccccc4C(F)(F)F)c(=O)c-3cc3ccccc32)cc1
Observation type: GI50
Obs value: 31.3 µM (inactive)
--
Compound: CNC(=S)N/N=C/c1cccc(C)n1
Observation type: GI50
Obs value: 20.7 µM (inactive)
--
Compound: CC(C)CCCC(C)[C@H]1CCC2[C@@H]3CCC4Cc5nc6c(nc5C[C@]4(C)C3CC[C@@]21C)CC1CC[C@@H]2C(CC[C@@]3(C)C2CC[C@@H]3O)[C@@]1(C)C6 (stereo partly specified)
Observation type: GI50
Obs value: > 100 µM (inactive)
--
Compound: CC1C(c2ccc3c(c2)OCO3)c2cc3c(cc2OC1N1CCOCC1)OCO3 (stereo unspecified)
Observation type: GI50
Obs value: 22.4 µM (inactive)
--
Compound: CC1=C(C(=O)OC(C)(C)C)C(c2ccc([N+](=O)[O-])cc2)C(C(=O)OC(C)(C)C)=C(C)N1
Observation type: GI50
Obs value: 22.8 µM (inactive)
--
Compound: O=C(OCC(OC(=O)c1ccccc1)C1CC(C(O)C2CCCCC2)C(=O)O1)c1ccccc1 (stereo unspecified)
Observation type: GI50
Obs value: > 100 µM (inactive)
--
Compound: NC(=O)NNC(=O)NC12CC3CC(CC(C3)C1)C2
Observation type: GI50
Obs value: > 100 µM (inactive)
--
Compound: C=C(C)CCN(C(=O)OC(C)(C)C)c1cc(C(C)C)co1
Observation type: GI50
Obs value: > 100 µM (inactive)
--
Compound: COc1cc2c3c(c1)c1cc(OC)c(OC)cc1c[n+]3CC2
Observation type: GI50
Obs value: > 50 µM (inactive)
